# credit: patent US6825209B2

Each entry below lists one item and its recorded Ki value.
# target or test system: human CB1 receptor (Homo sapiens, UniProt P21554)
# Construct: expressed in transfected cells; host or cells: HEK-293
# Sequence (P21554 whole entry): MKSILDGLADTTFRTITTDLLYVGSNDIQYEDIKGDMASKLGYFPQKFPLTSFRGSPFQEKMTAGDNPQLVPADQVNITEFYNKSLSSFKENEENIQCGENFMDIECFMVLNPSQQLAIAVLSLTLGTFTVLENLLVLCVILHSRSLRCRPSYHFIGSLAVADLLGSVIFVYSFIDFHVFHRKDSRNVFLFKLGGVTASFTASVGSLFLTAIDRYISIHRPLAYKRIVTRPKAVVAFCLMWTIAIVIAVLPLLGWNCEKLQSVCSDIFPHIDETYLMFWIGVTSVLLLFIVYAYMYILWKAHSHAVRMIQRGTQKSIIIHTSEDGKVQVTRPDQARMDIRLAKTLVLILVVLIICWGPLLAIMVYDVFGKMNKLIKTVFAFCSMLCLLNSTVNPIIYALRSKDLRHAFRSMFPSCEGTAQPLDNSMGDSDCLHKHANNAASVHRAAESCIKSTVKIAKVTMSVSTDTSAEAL
# measurement protocol: Radioligand displacement in human CB1 receptor-transfected cells (HEK-293)
# Assay type: binding
# experimental parameters: Ki, displacement of 3H-WIN55212-2

compound	target or test system	Ki [nM]
CCCCCCCCNC(=O)c1nn(-c2ccc(Cl)cc2Cl)c(-c2ccc(Cl)cc2)c1C [MF9879-164-28]	human CB1 receptor (Homo sapiens, UniProt P21554)	267
CCCCCCCCCCNC(=O)c1nn(-c2ccc(Cl)cc2Cl)c(-c2ccc(Cl)cc2)c1C [BT-1]	human CB1 receptor (Homo sapiens, UniProt P21554)	63.8
CCCCCC(C)NC(=O)c1nn(-c2ccc(Cl)cc2Cl)c(-c2ccc(Cl)cc2)c1C (stereo not shown) [AKS-10262-1]	human CB1 receptor (Homo sapiens, UniProt P21554)	54.6
CCCCCCCNC(=O)c1nn(-c2ccc(Cl)cc2Cl)c(-c2ccc(Cl)cc2)c1C [MF9725-133-25]	human CB1 receptor (Homo sapiens, UniProt P21554)	393

---

# target or test system: CB1 receptor (Rattus norvegicus)
# Construct: Whole rat brains or dissected regions from live CD rats; tissue Charles River or Pel-Freez Biologicals; host or cells: whole rat brain (CD rats), P2 membrane
# measurement protocol: Radioligand displacement in whole rat brain (CB1) membrane preparations
# Format: binding
# experimental parameters: whole rat brain membranes; radioligand 3H-CP55940; Tables 1 and 2
Each entry below lists one item and its recorded Max. Disp. %, 3H-CP55940 value.
property: Max. Disp. %, 3H-CP55940

molecule	target or test system	property	result
Cc1c(C(=O)O)nn(-c2ccc(Cl)cc2Cl)c1-c1ccc(Cl)cc1	CB1 receptor (Rattus norvegicus)	Max. Disp. %, 3H-CP55940	8.2%
CCCCNC(=O)c1nn(-c2ccc(Cl)cc2Cl)c(-c2ccc(Cl)cc2)c1C	CB1 receptor (Rattus norvegicus)	Max. Disp. %, 3H-CP55940	91.9%
CCOC(=O)c1nn(-c2ccc(Cl)cc2Cl)c(-c2ccc(Cl)cc2)c1C	CB1 receptor (Rattus norvegicus)	Max. Disp. %, 3H-CP55940	91.7%
Cc1c(C(=O)NN)nn(-c2ccc(Cl)cc2Cl)c1-c1ccc(Cl)cc1	CB1 receptor (Rattus norvegicus)	Max. Disp. %, 3H-CP55940	68.4%
Cc1c(C(=O)NO)nn(-c2ccc(Cl)cc2Cl)c1-c1ccc(Cl)cc1	CB1 receptor (Rattus norvegicus)	Max. Disp. %, 3H-CP55940	58.4%
Cc1c(C(=O)NCCCO)nn(-c2ccc(Cl)cc2Cl)c1-c1ccc(Cl)cc1	CB1 receptor (Rattus norvegicus)	Max. Disp. %, 3H-CP55940	86.6%
Cc1c(C(=O)NC(C)C)nn(-c2ccc(Cl)cc2Cl)c1-c1ccc(Cl)cc1	CB1 receptor (Rattus norvegicus)	Max. Disp. %, 3H-CP55940	88.3%
Cc1c(C(=O)NCCCCO)nn(-c2ccc(Cl)cc2Cl)c1-c1ccc(Cl)cc1	CB1 receptor (Rattus norvegicus)	Max. Disp. %, 3H-CP55940	88.7%
Cc1c(C(=O)NN2CCOCC2)nn(-c2ccc(Cl)cc2Cl)c1-c1ccc(Cl)cc1 [MF9725-33D]	CB1 receptor (Rattus norvegicus)	Max. Disp. %, 3H-CP55940	96.2%

---

Each entry below lists one item and its recorded pKi value.
# target or test system: CB1 receptor (Rattus norvegicus, UniProt P20272)
# Construct: Whole rat brains or dissected regions from live CD rats; tissue Charles River or Pel-Freez Biologicals; host or cells: whole rat brain (CD rats), P2 membrane
# Sequence (P20272 whole entry): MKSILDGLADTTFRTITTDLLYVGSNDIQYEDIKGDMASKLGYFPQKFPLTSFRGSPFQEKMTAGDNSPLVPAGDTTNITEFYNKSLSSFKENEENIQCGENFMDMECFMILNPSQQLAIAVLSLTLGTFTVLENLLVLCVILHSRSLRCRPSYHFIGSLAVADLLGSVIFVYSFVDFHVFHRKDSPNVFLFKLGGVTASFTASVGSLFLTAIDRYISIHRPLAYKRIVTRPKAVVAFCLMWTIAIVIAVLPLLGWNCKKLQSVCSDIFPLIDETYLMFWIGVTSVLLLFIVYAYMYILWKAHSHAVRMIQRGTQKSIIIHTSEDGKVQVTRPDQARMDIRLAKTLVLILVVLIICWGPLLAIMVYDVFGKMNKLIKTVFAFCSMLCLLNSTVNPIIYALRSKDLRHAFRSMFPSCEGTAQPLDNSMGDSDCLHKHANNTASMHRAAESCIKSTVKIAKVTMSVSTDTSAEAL
# measurement protocol: Radioligand displacement in whole rat brain (CB1) membrane preparations
# Format: binding
# experimental parameters: Ki, displacement of 3H-CP55940, whole rat brain; 3H-CP55940; Table 4, parallel synthesis analogs, n = 1, concentration assumes 100% yield
pKi: −log10 of the molar value.

compound	target or test system	pKi
CCCCCCCCCCCCNC(=O)c1nn(-c2ccc(Cl)cc2Cl)c(-c2ccc(Cl)cc2)c1C	CB1 receptor (Rattus norvegicus, UniProt P20272)	6.96
Cc1c(C(=O)NC(C)CCCC(C)C)nn(-c2ccc(Cl)cc2Cl)c1-c1ccc(Cl)cc1 (stereo not drawn)	CB1 receptor (Rattus norvegicus, UniProt P20272)	8.05
CCC(C)CC(C)NC(=O)c1nn(-c2ccc(Cl)cc2Cl)c(-c2ccc(Cl)cc2)c1C (stereo not drawn)	CB1 receptor (Rattus norvegicus, UniProt P20272)	8.02
CCCCCC(CC)NC(=O)c1nn(-c2ccc(Cl)cc2Cl)c(-c2ccc(Cl)cc2)c1C (stereo not drawn)	CB1 receptor (Rattus norvegicus, UniProt P20272)	7.71
CCCCCCC(C)NC(=O)c1nn(-c2ccc(Cl)cc2Cl)c(-c2ccc(Cl)cc2)c1C (stereo not drawn)	CB1 receptor (Rattus norvegicus, UniProt P20272)	7.58
Cc1c(C(=O)NC(C)CCC(C)C)nn(-c2ccc(Cl)cc2Cl)c1-c1ccc(Cl)cc1 (stereo not drawn)	CB1 receptor (Rattus norvegicus, UniProt P20272)	8.47
CCCCCCCCCCNC(=O)c1nn(-c2ccc(Cl)cc2Cl)c(-c2ccc(Cl)cc2)c1C	CB1 receptor (Rattus norvegicus, UniProt P20272)	7.03
CC(C)=CCC/C(C)=C/CNC(=O)c1nn(-c2ccc(Cl)cc2Cl)c(-c2ccc(Cl)cc2)c1C	CB1 receptor (Rattus norvegicus, UniProt P20272)	7.32
CCCCCCCCCCCNC(=O)c1nn(-c2ccc(Cl)cc2Cl)c(-c2ccc(Cl)cc2)c1C	CB1 receptor (Rattus norvegicus, UniProt P20272)	6.77
Cc1c(C(=O)N2CCC(O)(c3ccccc3)CC2)nn(-c2ccc(Cl)cc2Cl)c1-c1ccc(Cl)cc1	CB1 receptor (Rattus norvegicus, UniProt P20272)	6.95
COc1ccc(NC(=O)c2nn(-c3ccc(Cl)cc3Cl)c(-c3ccc(Cl)cc3)c2C)cc1	CB1 receptor (Rattus norvegicus, UniProt P20272)	7.04
COc1ccc(CCNC(=O)c2nn(-c3ccc(Cl)cc3Cl)c(-c3ccc(Cl)cc3)c2C)cc1	CB1 receptor (Rattus norvegicus, UniProt P20272)	7.03

---

# target or test system: G-protein-linked cannabinoid receptors (Rattus norvegicus)
# Construct: tissue Charles River or Pel-Freez Biologicals; host or cells: whole rat brain crude membrane homogenate
# measurement protocol: GTP-γ-[35S] binding in whole rat brain
# Format: biochemical
# experimental parameters: whole rat brain membranes; value above highest concentration tested (footnote); read-out: EC50, GTP-γ-[35S] in Whole Rat Brain, value is above highest concentration on displacement curve
pEC50: −log10 of the molar value.

structure smiles	pEC50
Cc1c(C(=O)NN)nn(-c2ccc(Cl)cc2Cl)c1-c1ccc(Cl)cc1	≤ 3.38
Cc1c(C(=O)NCCO)nn(-c2ccc(Cl)cc2Cl)c1-c1ccc(Cl)cc1	≤ 2.78

---

# target or test system: CB1 receptor (Rattus norvegicus, UniProt P20272)
# Construct: Whole rat brains or dissected regions from live CD rats; tissue Charles River or Pel-Freez Biologicals; host or cells: whole rat brain (CD rats), P2 membrane
# measurement protocol: Radioligand displacement in whole rat brain (CB1) membrane preparations
# Format: binding
# experimental parameters: whole rat brain membranes; radioligand 3H-SR141716A; Tables 1 and 2

compound	Max. Disp. %, 3H-SR141716A / %
CCCCNC(=O)c1nn(-c2ccc(Cl)cc2Cl)c(-c2ccc(Cl)cc2)c1C	100
CCCCCCC(C)(C)NC(=O)c1nn(-c2ccc(Cl)cc2Cl)c(-c2ccc(Cl)cc2)c1C	76.4
Cc1c(C(=O)NCCCO)nn(-c2ccc(Cl)cc2Cl)c1-c1ccc(Cl)cc1	100
CCOC(=O)c1nn(-c2ccc(Cl)cc2Cl)c(-c2ccc(Cl)cc2)c1C	96.9
Cc1c(C(=O)NO)nn(-c2ccc(Cl)cc2Cl)c1-c1ccc(Cl)cc1	65.7
CCCCCCCNC(=O)c1nn(-c2ccc(Cl)cc2Cl)c(-c2ccc(Cl)cc2)c1C	97.9
CCCCCCCCNC(=O)c1nn(-c2ccc(Cl)cc2Cl)c(-c2ccc(Cl)cc2)c1C	75.2
CCCCCNC(=O)c1nn(-c2ccc(Cl)cc2Cl)c(-c2ccc(Cl)cc2)c1C	100
CCCNC(=O)c1nn(-c2ccc(Cl)cc2Cl)c(-c2ccc(Cl)cc2)c1C [MF9725-55C]	100
CCCCCCNC(=O)c1nn(-c2ccc(Cl)cc2Cl)c(-c2ccc(Cl)cc2)c1C	98.6
Cc1c(C(=O)NCC(C)C)nn(-c2ccc(Cl)cc2Cl)c1-c1ccc(Cl)cc1	100
Cc1c(C(=O)NN)nn(-c2ccc(Cl)cc2Cl)c1-c1ccc(Cl)cc1	85.9
Cc1c(C(=O)NC2CCCCC2)nn(-c2ccc(Cl)cc2Cl)c1-c1ccc(Cl)cc1	100
Cc1c(C(=O)NC(C)CO)nn(-c2ccc(Cl)cc2Cl)c1-c1ccc(Cl)cc1 (single isomer, unassigned) [MF9725-105-38]	96.8
